# target: LPAR1 (Homo sapiens)
# Construct: host or cells: U2OS
# Sequence (Q92633 whole entry): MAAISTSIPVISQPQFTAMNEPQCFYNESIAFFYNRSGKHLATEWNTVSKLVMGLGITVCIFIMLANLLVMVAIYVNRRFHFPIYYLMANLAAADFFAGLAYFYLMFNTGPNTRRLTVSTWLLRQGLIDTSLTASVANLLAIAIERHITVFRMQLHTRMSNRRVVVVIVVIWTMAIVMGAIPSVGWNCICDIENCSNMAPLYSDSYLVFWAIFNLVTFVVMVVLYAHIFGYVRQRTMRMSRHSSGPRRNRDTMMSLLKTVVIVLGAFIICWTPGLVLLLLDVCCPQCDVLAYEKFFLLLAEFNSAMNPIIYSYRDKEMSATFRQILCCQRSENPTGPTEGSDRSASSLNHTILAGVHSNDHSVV
# experiment: LPAR1 FLIPR Assay
# Format: cell-based
# condition: U2OS cells stably expressing LPAR1; LPA (EC80); Calcium 6 FLIPR dye
Threshold check on IC50: strictly below 600 nM is class 1; on or above 600 nM is class 0.

Q. Dear reviewer, please state whether COc1ccc(C2(C(=O)N(CCCCC(=O)O)CCCc3ccccc3)CC2)nc1 [Example 63] has IC50 strictly beneath 600 nM.
A. class 1

Q. Dear reviewer, please state whether COc1cc(C(=O)N(CCCCC(=O)O)CCCc2ccccc2)cc(OC)c1OC [Example 10] has IC50 strictly beneath 600 nM.
A. class 1

Q. Input Cn1cc(C(=O)N(CCCCC(=O)O)CCCc2ccccc2)c2ccccc2c1=O [Example 169] ; condition: IC50 strictly below 600 nM. Does it hold?
A. class 0

Q. Identify whether the compound COc1cc(C(=O)N(CCCCC(=O)O)CCCc2ccc(F)cc2F)cc(OC)c1C [Example 146] records IC50 below 600 nM.
A. class 1

Q. Strictly below 600 nM: is that where IC50 of CCOC1CC1(C(=O)N(CCCCC(=O)O)CCCc1ccccc1)c1ccc(OC)cc1 (stereo not drawn) [Example 149] sits?
A. class 0

Q. For this compound, is IC50 lower than 600 nM? O=C(O)CCCCN(CCCc1ccccc1)C(=O)C1(c2ccncc2)CC1 [Example 64]
A. class 0

Q. Answer whether the compound COc1cc(OC)cc(C(=O)N(CCCCC(=O)O)CCCc2ccc(F)cc2)c1 [Example 148] has IC50 strictly less than 600 nM
A. class 0

Q. State whether 600 nM exceeds IC50 recorded for COc1cc(C(=O)N(CCCCP(=O)(O)O)CCCc2ccccc2)cc(OC)c1C [Example 71] .
A. class 1

====

Would you mind telling me the reported Emax of each entry?
# target: LPAR1 (Homo sapiens)
# Construct: host or cells: U2OS
# experiment: LPAR1 FLIPR Assay
# Assay type: cell-based
# condition: U2OS cells stably expressing LPAR1; LPA (EC80); Calcium 6 FLIPR dye; read-out: Maximum Inhibition
Please answer using the number first and the unit second.

Q. What does the record list as Emax for COc1cc(C(=O)N(CCCCC(=O)O)CCCc2ccccc2)ccc1Cl ?
A. 61%

Q. Would you kindly share the measured Emax for COc1cc(C(=O)N(CCCCCC(=O)O)CCCc2ccccc2)cc(OC)c1C ?
A. 97%

Q. Requested field: Emax. Item: COc1cc(C(=O)N(CCCCC(=O)O)CCCc2ccccc2)cc(OC)c1C
A. 98%

Q. Recorded Emax for COc1cc(C(=O)N(CCCc2ccccc2)CCCC(C)P(=O)(O)O)cc(OC)c1C (stereo not shown) , please?
A. 99%

====

# target: LPAR1 (Homo sapiens)
# Construct: host or cells: U2OS
# experiment: LPAR1 FLIPR Assay
# Type: cell-based
# condition: U2OS cells stably expressing LPAR1; LPA (EC80); Calcium 6 FLIPR dye; read-out: Maximum Inhibition
# Experimental: U2OS cells stably expressing LPAR1 (Life Technologies #K1519A) were plated at 12000 cells/well in growth medium (McCoy's 5A medium(Life Technologies 16600-082)) with 10% dFBS (Life Technologies 26400-036), 0.1 mM non-essential amino acids, 25 mM HEPES, 1 mM sodium pyruvate, 1% penicillin/streptomycin, 50 μg/mL hygromycin, and 100 μg/mL Geneticin® in black-walled, clear-bottom 384-well plates (Corning #3683) and incubated in humidified 5% CO2 at 37° C. overnight. […]
readout.kind: Emax (%)
# value in %; strip the unit string

Q. What Emax appears in the records for this compound with LPAR1 (Homo sapiens)? COc1cc(C(=O)N(CCCc2cccc(Cl)c2)CCOCC(=O)O)cc(OC)c1C
A. 93

Q. GET /values?readout=Emax&system=LPAR1 (Homo sapiens)&item= COc1cc(C(=O)N(CCCCC(=O)NS(=O)(=O)c2ccccn2)CCCc2ccccc2)cc(OC)c1C
A. 94

Q. What Emax appears in the records for this compound with LPAR1 (Homo sapiens)? COc1cc(C(=O)N(CCCc2ccccc2)CC(=O)NC2(C(=O)O)CC2)cc(OC)c1C
A. 52

Q. Request - read-out Emax | tested on LPAR1 (Homo sapiens) | compound COc1cc(C(=O)N(CCCCC(=O)O)CCCc2ccccc2)ccc1[N+](=O)[O-]
A. 89

Q. Could you share what Emax was measured for COc1cc(C(=O)N(CCCCC(=O)O)CCCc2ccccc2)ccc1F , tested on LPAR1 (Homo sapiens)?
A. 31

Q. Query for LPAR1 (Homo sapiens): what Emax does the record show for COc1cc(C(=O)N(CCCc2ccccc2)CCCC(O)C(=O)O)cc(OC)c1C (stereo not shown) ?
A. 79

Q. Requested read-out Emax, target or system LPAR1 (Homo sapiens), entry COc1cc(C(=O)N(CCCc2ccccc2)CCOC(C)(C)C(=O)NS(C)(=O)=O)cc(OC)c1C
A. 99

Q. Checklist item: Emax tested on LPAR1 (Homo sapiens), entry COc1ccc(C2(C(=O)N(CCCCC(=O)O)CCCc3ccccc3)CC2)nc1 , value?
A. 87

Q. Find the measured Emax: item COc1cc(C(=O)N(CCCc2ccccc2)C(C)CCCC(=O)O)cc(OC)c1C (stereo not shown) , target or system LPAR1 (Homo sapiens).
A. 76

Q. Field: Emax (LPAR1 (Homo sapiens)). Entry: COc1ccc2c(C(=O)N(CCCCC(=O)O)CCCc3ccccc3)c[nH]c2c1
A. 49

Q. Any idea what Emax came out for COc1cc(C(=O)N(CCCCC(=O)O)CCCc2ccc(C)o2)cc(OC)c1C on LPAR1 (Homo sapiens)?
A. 89

Q. What reported Emax corresponds to COc1cc(OC)cc(C(=O)N(CCCc2ccccc2)CCOCC(=O)O)c1 on LPAR1 (Homo sapiens)?
A. 59

Q. I'm curious: which Emax was measured for COc1cc(C(=O)N(CCCc2ccc(F)cc2)CCSCC(=O)O)cc(OC)c1C tested on LPAR1 (Homo sapiens)?
A. 78

Q. Write down the reported Emax of COc1cc(OC)cc(C(=O)N(CCCc2ccccc2)CCSCC(=O)O)c1 , test system: LPAR1 (Homo sapiens).
A. 59

Q. Reported Emax for LPAR1 (Homo sapiens), given COc1cc(OC)cc(C(=O)N(CCCCC(=O)O)CCCc2cccc(Cl)c2)c1 ?
A. 89

Q. Any idea what Emax came out for Cc1ncc(Cl)c(C(=O)N(CCCCC(=O)O)CCCc2ccccc2)n1 on LPAR1 (Homo sapiens)?
A. 58

Q. Recall the recorded Emax for COc1cc(C(=O)N(CCCc2ccccc2Cl)CCSCC(=O)O)cc(OC)c1C with LPAR1 (Homo sapiens) and state it.
A. 77

Q. Provide value of Emax for this record tested with LPAR1 (Homo sapiens): COc1cc(C(=O)N(CCCc2cccc(Cl)c2)CCSCC(=O)O)cc(OC)c1C
A. 95

Q. State its Emax on LPAR1 (Homo sapiens): COc1cc(C(=O)N(CCCCC(=O)NS(=O)(=O)c2ccccc2)CCCc2ccccc2)cc(OC)c1C
A. 92

Q. Enter reported Emax observed with LPAR1 (Homo sapiens) for O=C(O)CCCCN(CCCc1ccccc1)C(=O)C1CC(=O)Nc2ccc(F)cc21 (stereo not shown)
A. 62

Q. GET /values?readout=Emax&system=LPAR1 (Homo sapiens)&item= COc1cc(C(=O)N(CCCCC(=O)NS(C)(=O)=O)CCCc2ccccc2)cc(OC)c1C
A. 95

Q. Write down the reported Emax of COc1cc(C(=O)N(CCCCC(=O)O)CCCc2ccc(F)cc2)cc(OC)c1C , test system: LPAR1 (Homo sapiens).
A. 96

Q. API: value(readout= Emax, system= LPAR1 (Homo sapiens), query= O=C(O)CCCCN(CCCc1ccccc1)C(=O)C1(c2ccncc2)CC1 )
A. 54

Q. Provide the documented Emax with LPAR1 (Homo sapiens) as the system for COc1cc(C(=O)N(CCCc2ccccc2)CCOC(=O)NS(=O)(=O)c2ccc(F)cc2)cc(OC)c1C
A. 30

Q. Which Emax is reported with LPAR1 (Homo sapiens) for this entry: COc1cc(C(=O)N(CCCc2ccccc2)CC(=O)NC(C)(C)C(=O)O)cc(OC)c1C ?
A. 91

Q. Kindly state the measured Emax obtained for COc1cc(C(=O)N(CCCc2ccccc2)CC(=O)NC2(C(=O)O)CCCCC2)cc(OC)c1C with LPAR1 (Homo sapiens).
A. 72

Q. Give LPAR1 (Homo sapiens) Emax for COc1cc(C(=O)N(CCCCC(=O)NS(=O)(=O)c2cccnc2)CCCc2ccccc2)cc(OC)c1C
A. 88

Q. Query the reported Emax for LPAR1 (Homo sapiens); item: CC(=O)Nc1cc(C(=O)N(CCCCC(=O)O)CCCc2ccccc2)ccn1
A. 70

Q. Item: COc1c(F)cc(C(=O)N(CCCCC(=O)O)CCCc2ccccc2)cc1F Test system: LPAR1 (Homo sapiens) Read-out: Emax Value: ?
A. 48

Q. Provide the documented Emax with LPAR1 (Homo sapiens) as the system for COc1cc(C(=O)N(CCCCC(=O)NS(=O)(=O)c2ccc(F)cc2)CCCc2ccccc2)cc(OC)c1C
A. 89

Q. // map COc1cc(C(=O)N(CCCc2ccccc2)CC(=O)NCC(=O)O)cc(OC)c1C to recorded Emax (system: LPAR1 (Homo sapiens))
A. 62

Q. Can you look up Emax on LPAR1 (Homo sapiens) for COc1cc(OC)c(Cl)c(C(=O)N(CCCCC(=O)O)CCCc2ccccc2)c1 ?
A. 96

Q. Recall the recorded Emax for COc1cc(C(=O)N(CCCC(=O)O)CCCc2ccccc2)cc(OC)c1C with LPAR1 (Homo sapiens) and state it.
A. 38

Q. Hi! What's the reported Emax for COc1cc(C(=O)N(CCCc2ccccc2)CCC(=O)O)cc(OC)c1C on LPAR1 (Homo sapiens)?
A. 46
